- System: MDA-MB-435 melanoma
- EXPERIMENT_SUMMARY: NCI-60 one-dose screen, 48 h (100 = growth as untreated, 0 = no growth, -100 = all killed)
- COND: 10 µM unless noted
This is part of a sample that, as a whole, favours compounds with a hit. Of some 83,000 tested, about 20% had one in any assay. The source made the active and inactive calls. The calls were made as follows: active = growth percent below 10; inactive = the rest.
Parameter: growth. Scope: all listed entries.
RECORDED_METRIC: growth

[[record]]
compound = "N#Cc1c(-c2ccc(Cl)cc2)nc(NN=Cc2cccc(Cl)c2)nc1N1CCOCC1"
reported_measurement = "92% (inactive)"

[[record]]
compound = "COc1cc2cc(Oc3ccc(NC(=O)Nc4ccc(Cl)c(Cl)c4)cc3)c(C)nc2cc1OCCN1CCCCC1"
reported_measurement = "74.2% (inactive)"

[[record]]
compound = "Cc1ccc(S(=O)(=O)c2nc(-c3ccccc3)oc2S(C)=O)cc1 (stereo not given)"
reported_measurement = "37% (inactive)"

[[record]]
compound = "COc1ccc(-c2cc(-c3ccc(Cl)cc3)c(C#N)c(=O)n2CCCCC(=O)NO)cc1"
reported_measurement = "91.1% (inactive)"

[[record]]
compound = "O=C(/C=C/c1ccco1)c1ccc(Nc2ccnc3cc(Cl)ccc23)cc1"
reported_measurement = "92.5% (inactive)"

[[record]]
compound = "CC/C(=C(/c1ccc(Cl)cc1)c1ccc(OCCN2CCCC2)cc1)c1ccccc1"
reported_measurement = "60.2% (inactive)"

[[record]]
compound = "COc1ccc(C2=NN(C=O)C(c3ccc(Oc4nc5c(c(=O)n(C)c(=O)n5C)n4C)c(OC)c3)C2)cc1 (stereo not given)"
reported_measurement = "61.2% (inactive)"

[[record]]
compound = "c1ccc2cc(Cn3cc[n+](Cc4ccc5ccccc5c4)c3)ccc2c1"
reported_measurement = "7.71% (active)"

[[record]]
compound = "CCOC(=O)CCC(=O)P(=O)(O)O"
reported_measurement = "125% (inactive)"

[[record]]
compound = "CCCCCCCCNC(=O)[C@@H](N)CSCOC(C)=O"
reported_measurement = "19.1% (inactive)"

[[record]]
compound = "C/C=C(/C)C(=O)O[C@@H]1CC(C)(C)CC2C34OC(=O)[C@@]21CC[C@@]3(C)[C@]1(C)CCC2C(C)(C)C(=O)CC[C@]2(C)C1C[C@@H]4O (stereo not given in full)"
reported_measurement = "70.9% (inactive)"

[[record]]
compound = "CCN1C(=O)N(CC)C2C1NC(=S)N2/N=C/C=C/c1ccccc1 (stereo not given)"
reported_measurement = "-42.1% (active)"

[[record]]
compound = "O=C(NS(=O)(=O)c1ccccc1)n1cc(-c2ccncc2)c(-c2cc(O)cc(Cl)c2)n1"
reported_measurement = "66.6% (inactive)"

[[record]]
compound = "CN1/C(=C/C=C/c2n(Cc3ccc4ccccc4c3)c(Cl)c(Cl)[n+]2Cc2ccc3ccccc3c2)Oc2ccccc21"
reported_measurement = "-81.8% (active)"

[[record]]
compound = "O=C(O)COc1ccc(F)cc1"
reported_measurement = "108% (inactive)"

[[record]]
compound = "COc1ccc(-c2cc(-c3ccc(N(C)C)cc3)nc(NC(=O)c3cccnc3)n2)cc1"
reported_measurement = "103% (inactive)"

[[record]]
compound = "CCOC(=O)/C(=C\\c1ccccc1Cl)P(=O)(OCC)OCC"
reported_measurement = "45.1% (inactive)"

[[record]]
compound = "COC(=O)c1nc(-c2ccccc2)oc1S(=O)(=O)N1CCN(c2ccc(OC)cc2)CC1"
reported_measurement = "77.2% (inactive)"

[[record]]
compound = "O=C1CCc2c(sc3[nH]c(=S)n(-c4cc(C(F)(F)F)cc(C(F)(F)F)c4)c(=O)c23)C1"
reported_measurement = "7.15% (active)"

[[record]]
compound = "Cc1ccc(C(=O)Nc2ccc(CN3CCN(C)CC3)c(C(F)(F)F)c2)cc1C#Cc1cnc(N)c2ccccc12"
reported_measurement = "-97% (active)"

[[record]]
compound = "Clc1ccc2c(NCCCn3cnc4c(N5CCCC5)nc(Cl)nc43)ccnc2c1"
reported_measurement = "101% (inactive)"

[[record]]
compound = "N=C(N)c1ccc(-c2ccc(-c3ccccc3)s2)nc1"
reported_measurement = "85.8% (inactive)"

[[record]]
compound = "CCOC(=O)c1c(C)c2c(n1Cc1ccccc1)CSc1cc(C#N)c(=O)[nH]c1-2"
reported_measurement = "98.2% [100 µM] (inactive)"

[[record]]
compound = "Cc1c(N2CCCCC2)[nH]c2ccccc12"
reported_measurement = "103% (inactive)"

[[record]]
compound = "COc1cc2c(c(OC)c1OC)C(=O)CC(c1cccc(C(=O)Nc3ccc(Br)cc3)c1)O2 (stereo not given)"
reported_measurement = "30.3% (inactive)"

[[record]]
compound = "C=CCn1c(SCC(=O)Nc2ccc(C(=O)/C=C/c3cc(OC)c(OC)c(OC)c3)cc2)nnc1-c1cc(-c2ccc(S(N)(=O)=O)cc2)nc2ccccc12"
reported_measurement = "80.2% (inactive)"

[[record]]
compound = "C=CN(C(=O)N1CCN(c2cc3c(cc2F)c(=O)c(C(=O)O)cn3C2CC2)CC1)c1nc(-c2ccc(C)cc2)cs1"
reported_measurement = "22.1% (inactive)"

[[record]]
compound = "CCN(CC)CCOc1ccc(/C(=C(\\C)Cc2ccc(OC)cc2)c2ccc(O)cc2)cc1"
reported_measurement = "-67.8% (active)"

[[record]]
compound = "CCOC(=O)C1=CCC(n2cc(F)c(=O)[nH]c2=O)O1 (stereo not given)"
reported_measurement = "110% (inactive)"

[[record]]
compound = "COCCn1cc(-c2nc(-c3cc4cccnc4n3C)cs2)c2cc(OC)ccc21"
reported_measurement = "89.6% (inactive)"

[[record]]
compound = "CCOC(=O)c1ccc2c(c1)c1c(C)c3cnccc3c(C)c1n2C"
reported_measurement = "-65.8% (active)"

[[record]]
compound = "CC(C)n1nc(-c2ccc3oc(N)nc3c2)c2c(N)ncnc21"
reported_measurement = "-13.5% (active)"

[[record]]
compound = "Cc1[nH]c(C(=O)Nc2ccccc2OC2CCNC2)c(Cl)c1Cl (stereo not given)"
reported_measurement = "86.4% (inactive)"

[[record]]
compound = "CCOC(=O)c1cc(C(=O)c2cc(OC)cc(OC)c2)n2ccccc12"
reported_measurement = "-4.66% (active)"

[[record]]
compound = "CCOC(=O)c1cc(C(=O)c2cc(OC)cc(OC)c2)n2ncccc12"
reported_measurement = "1.18% (active)"

[[record]]
compound = "COc1cc(C(=O)n2nc(NCCCc3ccccc3)c3cc(N)ccc32)cc(OC)c1OC"
reported_measurement = "99% (inactive)"

[[record]]
compound = "CCOc1ccccc1NC(=O)CCC(=O)OC"
reported_measurement = "102% (inactive)"

[[record]]
compound = "C1=C2CCCC3=Cc4ccccc4OC23Oc2ccccc21"
reported_measurement = "-41.6% (active)"

[[record]]
compound = "CCCCCCCCNc1ncnc2c1ncn2Cc1nnc2c3ccccc3c(Cl)nn12"
reported_measurement = "46% (inactive)"

[[record]]
compound = "CN(C)CCCN(CCC1CCCCC1)CCC1CCCCC1"
reported_measurement = "-33.2% (active)"

